Quick reference: Growth Rate of the listed items.
System: HEK-293T
Test: Incucyte cell viability with HEK293T; also: unitless GR value; below 1 slowed growth and below 0 cell loss
Format: toxicity, cell-based
Conditions: human, 0 h, 10 µM, compound concentration 10 uM, replicate number 2, timepoint 0 hours

Consider the reported Growth Rate for these compounds:
INSERT INTO measurements (compound, recorded_result) VALUES
  ('CCCN(CCC)[C@@H]1CCc2ccc3[nH]c(C#N)cc3c2C1.Cl', 0.54),
  ('Cl.O=C1CC[C@@]2(O)[C@H]3Cc4ccc(O)c5c4[C@@]2(CCN3CC2CC2)[C@H]1O5 [NALTREXONE HYDROCHLORIDE]', 0.83),
  ('C[C@H](N)COC(=O)[C@@H](CCCCN)NC(=O)Cc1c(-c2ccc3ccccc3c2)[nH]c2c1ccc1ccccc12', 0.88);

// moving on: another record for Growth Rate
Report value: Growth Rate, system: HEK-293T, compound: "O=c1ccn([C@@H]2O[C@H](COP(=O)([O-])OP(=O)([O-])OP(=O)([O-])O)[C@@H](O)[C@H]2O)c(=O)[nH]1.[Na+].[Na+].[Na+]"
0.62

====

Test system: U2OS
Assay: Incucyte cell viability with U2OS; also: unitless GR value; below 1 slowed growth and below 0 cell loss
Assay type: toxicity, cell-based
Details: human, 18 h, 10 µM, compound concentration 10 uM, replicate number 1, timepoint 18 hours
Quick reference: Growth Rate of the listed items.
Please state the value as a number alone, without comment.

Consider the reported Growth Rate for these compounds:
INSERT INTO measurements (compound, experimental_system, recorded_result) VALUES
  ('O=C1NC(=Nc2c(Cl)cccc2Cl)S/C1=C\c1ccc2nccnc2c1', 'U2OS', 0.55),
  ('CN(C)C(=O)Cn1cc(-c2ccc(-c3cncc4ccccc34)cc2)cn1', 'U2OS', 0.59),
  ('CCN1C(=CC(C)=O)Sc2ccc(OC)cc21', 'U2OS', 0.63),
  ('Cc1cc(-c2ccc3c(c2)CC[C@H]3N2CC3(CCN(C(=O)Cc4cn5cc(C)sc5n4)CC3)C2)ncn1', 'U2OS', 0.94),
  ('Cl.O=C1CC[C@@]2(O)[C@H]3Cc4ccc(O)c5c4[C@@]2(CCN3CC2CC2)[C@H]1O5 [NALTREXONE HYDROCHLORIDE]', 'U2OS', 0.67),
  ('CS(=O)(=O)N1CCCC(NC(=O)[C@H](CCC2CCCCC2)NC(=O)c2ccc(CNc3ncnc4c3nnn4-c3ccccc3)cc2)C1 (some centres undefined)', 'U2OS', 0.6),
  ('CN(C(=O)c1ccccc1)c1cc(N(C)c2ccc3c(c2)CCc2ccc(C(=O)NCCN4CCOCC4)cc2C3=O)ccc1F', 'U2OS', 0.81),
  ('O=C1NC(NC23CC4CC(CC(C4)C2)C3)=N/C1=C\c1ccc2ncsc2c1', 'U2OS', 0.56),
  ('Cc1noc(C)c1-c1cnc2c(-c3ccc(C(=O)O)cc3)cn([C@@H](C)c3ccccn3)c2c1', 'U2OS', 0.73),
  ('O=C([O-])[C@H]1O[C@H](OP(=O)([O-])OP(=O)([O-])OC[C@H]2O[C@@H](n3ccc(=O)[nH]c3=O)[C@H](O)[C@@H]2O)[C@H](O)[C@@H](O)[C@@H]1O.[Na+].[Na+].[Na+]', 'U2OS', 0.9);

Supply recorded Growth Rate for "O=C(O)CCn1c2c(c3ccccc31)C[C@H](NS(=O)(=O)c1ccc(F)cc1)CC2" here.
0.98
